Tested on: HT-29
Test: NCI tumour cell line growth inhibition, 48 h
The source made the active and inactive calls. No stated cut-off is given here; in the data, active = GI50 up to about 1.1 µM and inactive = higher.
recorded-endpoint: GI50

In [3]: df
Out[3]:
                                   compound  study_system  recorded_endpoint                  val
0  Cc1sc2nc3n(c(=O)c2c1C)N=C(c1ccc([N+](=O)[O-])cc1)CS3         HT-29               GI50  > 100 µM (inactive)
1  COc1ccc(S(=O)(=O)NC(CCC(=O)NC(N)=O)C(=O)NC(N)=O)cc1 (stereo not given)         HT-29               GI50  > 100 µM (inactive)
2  CC(=O)Nc1cc2cc(NS(=O)(=O)c3ccc(Cl)c(Cl)c3)ccc2oc1=O         HT-29               GI50   35.3 µM (inactive)
3        O=[N+]([O-])c1ccc2c(c1)Sc1ccccc1N2         HT-29               GI50  > 100 µM (inactive)

Note: attention shifts to another entry.
# input Look up and state reported GI50 for `Cc1ccc(S(=O)(=O)Oc2nc3ccccc3nc2OS(=O)(=O)c2ccc(C)cc2)cc1`
# output > 100 µM (inactive)

====

Test system: EKVX
Assay: NCI tumour cell line growth inhibition, 48 h
Calls of active or inactive are those of the source. Cut-off read from the data, not from the text of the source: active = GI50 up to about 1.1 µM and inactive = higher.
Kindly supply the reported GI50 values for the records listed here.

Sample answers from the record:
In [3]: df
Out[3]:
                                   compound  recorded_endpoint                   val
0     CC(=O)c1nc2ccccc2n1CC(=O)c1ccc(Cl)cc1               GI50    38.2 µM (inactive)
1  COc1cc(C2c3cc4c(cc3[C@@H](Nc3ccc(C(=O)O)cc3)C3COC(=O)[C@H]23)OCO4)cc(OC)c1O (stereo partly specified)               GI50  > 17.5 µM (inactive)
2            Oc1ccc(SCc2cc(O)c(O)c(O)c2)cc1               GI50   > 100 µM (inactive)
3  OC1[C@@H]2[C@@H](O)CCCN2C[C@@H](O)[C@H]1O (stereo partly specified)               GI50   > 100 µM (inactive)
4  Cc1ccc(S(=O)(=O)N2CCC(C(=O)O)(c3ccccc3)CC2)cc1               GI50   > 100 µM (inactive)

Value sought for every listed compound: GI50.
1. N#CCc1ccc(/C(C#N)=C2/OC(=N)C(c3ccc(CC#N)cc3)C2=O)cc1 (stereo unspecified)
2. O=C1CCC2(CC1CC[S+]([O-])c1ccccc1)OCCO2 (stereo unspecified)

# output
> 100 µM (inactive)
> 100 µM (inactive)

Value sought for every listed compound: GI50.
1. COc1ccc(Nc2nc3cc(C(F)(F)F)ccc3nc2C(=O)O)cc1
2. CC(C)(C)OC(=O)NCCCNC1(c2cc3ccccc3s2)CCCCC1
3. CSc1s[s+]c(SC)c1[O-]
4. CC(=O)C(=[N+]=[N-])C(=O)N(C)CCC#N

# output
1: 22.9 µM (inactive); 2: 14 µM (inactive); 3: 75.7 µM (inactive); 4: > 10 µM (inactive)
